Tested on: barnyardgrass
Assay: Test A pre-/postemergence herbicide test
Assay type: in vivo, Echinochloa crus-galli
Settings: preemergence, 500 g ai/ha; 0 to 100 scale (0 no effect, 100 complete control)
ASSAY_READOUT: Plant response rating, Barnyardgrass

COMPOUND | RESULT_NUMBER
O=C1NCC(c2cccc(C(F)F)c2)C1C(=O)Nc1ccccc1F (racemic) | 90
O=C1NCC(c2cccc(F)c2)C1C(=O)Nc1ccccc1C(F)(F)F (racemic) | 60
O=C1NCC(c2ccc(F)c(F)c2)C1C(=O)Nc1ccccc1C(F)(F)F (racemic) | 80
O=C1NCC(c2ccc(F)cc2)C1C(=O)Nc1ccc(F)c(F)c1F (racemic) | 90
O=C1NCC(c2ccc(Cl)c(F)c2)C1C(=O)Nc1cccc(F)c1F (centres unmarked) | 90
CS(=O)(=O)c1ccccc1NC(=O)C1C(=O)NCC1c1cccc(C(F)(F)F)c1 (racemic) | 90
O=C1NCC(c2ccccc2F)C1C(=O)Nc1ccccc1F (racemic) | 30
O=C1NCC(c2cc(F)c(F)cc2F)C1C(=O)Nc1cccc(F)c1F (centres unmarked) | 90
O=C1NCC(c2cccc(Cl)c2)C1C(=O)Nc1ccccc1F (racemic) | 80
O=C1NCC(c2ccc(F)c(F)c2)C1C(=O)Nc1ccccn1 (centres unmarked) | 80
O=C1NCC(c2ccc(Cl)nc2)C1C(=O)Nc1ccccc1F (centres unmarked) | 60
O=C1NCC(c2ccc(F)c(F)c2)C1C(=O)Nc1cccc[n+]1[O-] (centres unmarked) | 0
Cc1cccc(C2CN(C(=O)OC(C)(C)C)C(=O)C2C(=O)Nc2ccccc2F)c1 (centres unmarked) | 80
O=C1NCC(c2cccc(C(F)F)c2)C1C(=O)Nc1cccc(F)c1F (racemic) | 90

* * *

Test system: waterhemp
Experiment: Test C pre-/postemergence herbicide test
Assay type: in vivo, Amaranthus rudis
Conditions: Postemergence; 250 g ai/ha; scale 0 to 100 (0 no effect, 100 complete control)

COMPOUND | Plant response rating, Waterhemp
O=C1NCC(c2cccc(OC(F)F)c2)C1C(=O)Nc1cccc(F)c1F (stereo not drawn) [Compound 224] | 30
CN1CC(c2ccc(C(F)(F)F)cc2)C(C(=O)Nc2cccc(F)c2F)C1=O (stereo not drawn) [Compound 306] | 80
O=C1NC[C@H](c2cccc(C(F)(F)F)c2)[C@H]1C(=O)Nc1cccc(F)c1F [Compound 206] | 30
O=C1NC[C@H](c2cccc(C(F)(F)F)c2)[C@H]1C(=O)Nc1ccccc1F [Compound 204] | 5
O=C1NCC(c2ccc(C(F)(F)F)cc2)C1C(=O)Nc1cccc(F)c1F (stereo not drawn) [Compound 80] | 65
O=C1NCC(c2ccc(C(F)(F)F)cc2)C1C(=O)Nc1ccccc1F (stereo not drawn) [Compound 79] | 30

* * *

System: rice
Test: Test B flooded paddy test
Format: in vivo, Oryza sativa
Conditions: 1000 g ai/ha, Flood; scale of 0 to 100 where 0 is no effect and 100 is complete control
Here, each record is paired with measured Plant response rating, Rice data.
ASSAY_READOUT: Plant response rating, Rice

COMPOUND | TEST_SYSTEM | ASSAY_READOUT | RESULT
COc1ccc(C2CNC(=O)C2C(=O)Nc2ccccc2F)cc1C(F)(F)F (racemic) [Compound 209] | rice | Plant response rating, Rice | 0
O=C1NCC(c2cccc(S(F)(F)(F)(F)F)c2)C1C(=O)Nc1cccc(F)c1F (centres unmarked) [Compound 214] | rice | Plant response rating, Rice | 20
O=C1NCC(c2ccc3ccccc3c2)C1C(=O)Nc1ccccc1F (racemic) [Compound 115] | rice | Plant response rating, Rice | 0
COc1cc(C2CNC(=O)C2C(=O)Nc2ccccc2C(F)(F)F)ccc1F (racemic) [Compound 196] | rice | Plant response rating, Rice | 0
O=C1NCC(c2cccc(S(F)(F)(F)(F)F)c2)C1C(=O)Nc1ccccc1C(F)(F)F (centres unmarked) [Compound 215] | rice | Plant response rating, Rice | 0
